Target: adenosine A1 receptor (Homo sapiens, UniProt P30542)
Construct: expressed in transfected cells; host or cells: CHO (Chinese Hamster Ovary)
Sequence (P30542 whole entry): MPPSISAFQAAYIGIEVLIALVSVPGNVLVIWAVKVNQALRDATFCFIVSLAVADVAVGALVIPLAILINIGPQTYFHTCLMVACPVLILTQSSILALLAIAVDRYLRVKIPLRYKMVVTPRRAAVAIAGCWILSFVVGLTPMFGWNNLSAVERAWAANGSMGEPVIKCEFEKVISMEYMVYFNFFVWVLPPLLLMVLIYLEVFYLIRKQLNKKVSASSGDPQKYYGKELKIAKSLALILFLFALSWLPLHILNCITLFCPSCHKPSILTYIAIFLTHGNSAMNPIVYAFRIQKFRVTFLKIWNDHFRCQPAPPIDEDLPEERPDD
Test: Indirect determination of adenosine agonism by way of gene expression (cAMP-dependent luciferase reporter), A1 cells
Format: cell-based
Conditions: stably transfected CHO cells; 1 μM forskolin; concentration at which 50% of the luciferase response is inhibited
Text: B-1. Indirect determination of the adenosine agonism by way of gene expression Cells of the CHO (Chinese Hamster Ovary) permanent line are transfected stably with the cDNA for the adenosine receptor subtypes A1, A2a and A2b. The adenosine A1 receptors are coupled to the adenylate cyclase by way of Gi proteins, while the adenosine A2a and A2b receptors are coupled by way of Gs proteins. In correspondence with this, the formation of cAMP in the cell is inhibited or stimulated, respectively. […]
Experimental Readout: EC50 (nM)
Answers are plain numbers, in nM.

Dear colleague, could you please provide EC50 for the compounds listed below?
1. COC(=O)c1c(N)c2c(-c3ccc(OC[C@@H](O)CO)cc3)c(C#N)c(SCc3coc(-c4ccc(Cl)cc4)n3)nc2n1C [Example 11]
2. COC(=O)c1c(N)c2c(-c3ccc(OCCO)cc3)c(C#N)c(SCc3csc(-c4ccc(Cl)cc4)n3)nc2n1C [Example 1]
3. CNC(=O)c1c(N)c2c(-c3ccc(OCCO)cc3)c(C#N)c(SCc3csc(-c4ccc(Cl)cc4)n3)nc2n1C [Example 7]
4. COC(=O)c1c(N)c2c(-c3ccc(OCCO)cc3)c(C#N)c(SCc3cccc(C#N)c3)nc2n1C [Example 4]

Marked response:
1: 14; 2: 0.8; 3: 5; 4: 3

meta.source: patent US8609686B2
